Tested on: S. pyogenes G-36
Assay: Antibacterial activity (MIC), standard method of the Japanese Society of Chemotherapy
Type: cell-based
Conditions: Streptococcus pyogenes, G36; S. pyogenes G-36; read-out: MIC
Please provide measured MIC for the entries that follow.
Give bare numbers, in µg/mL.

Below are worked cases with known answers.
| COMPOUND | ASSAY VALUE |
| --- | --- |
| O=C(O)c1cn(C2CC2)c2cc(N3CCNCC3)c(F)cc2c1=O [CPFX, ciprofloxacin, reference compound] | 1.56 |
| N#Cc1c(N2CC[C@@H](C3(N)CC3)C2)c(F)cc2c(=O)c(C(=O)O)cn([C@@H]3C[C@@H]3F)c12 | 0.006 |
| N#Cc1c(N2CC[C@@H](C3(N)CC3)C2)c(F)cc2c(=O)c(C(=O)O)cn(C3CC3)c12 | 0.006 |
| C[C@H]1COc2c(N3CCN(C)CC3)c(F)cc3c(=O)c(C(=O)O)cn1c23 [LVFX, levofloxacin, reference compound] | 0.78 |

Here is the next item to consider.
Query: MIC; subject: N#Cc1c(N2CC[C@@H](C3(N)CC3)C2)ccc2c(=O)c(C(=O)O)cn([C@@H]3C[C@@H]3F)c12 [Control drug 1, reference compound]
Response: 0.025
